assay: Intrinsic clearance in rat liver microsomes assessed as metabolic turnover
Metric Name: microsomal CLint (µL/min/mg)

[
  {
    "Cpd Smiles": "C[C@H](C#N)NC(=O)[C@@H]1CCCC[C@H]1C(=O)N1CCc2[nH]c3ccc(F)cc3c2C1",
    "Comparative Sign": ">",
    "Obs Value": 250
  },
  {
    "Cpd Smiles": "N#CC1(NC(=O)[C@@H]2CCCC[C@H]2C(=O)N2CCc3[nH]c4cccc(F)c4c3C2)CC1",
    "Comparative Sign": "=",
    "Obs Value": 322
  },
  {
    "Cpd Smiles": "N#CC1(NC(=O)[C@@H]2CCCC[C@H]2C(=O)N2CCc3[nH]c4ccc(Cl)cc4c3C2)CC1",
    "Comparative Sign": ">",
    "Obs Value": 350
  },
  {
    "Cpd Smiles": "N#CC1(NC(=O)[C@@H]2CCCC[C@H]2C(=O)N2CCc3oc4ccccc4c3C2)CC1",
    "Comparative Sign": ">",
    "Obs Value": 350
  },
  {
    "Cpd Smiles": "N#CC1(NC(=O)[C@@H]2CCCC[C@H]2C(=O)N2CCc3[nH]c4cc(F)ccc4c3C2)CC1",
    "Comparative Sign": "=",
    "Obs Value": 89
  },
  {
    "Cpd Smiles": "Cn1c2c(c3c(F)c(F)ccc31)CN(C(=O)[C@@H]1CCCC[C@H]1C(=O)NC1(C#N)CC1)CC2",
    "Comparative Sign": ">",
    "Obs Value": 350
  },
  {
    "Cpd Smiles": "CCOc1cccc2c3c([nH]c12)CCN(C(=O)[C@@H]1CCCC[C@H]1C(=O)NC1(C#N)CC1)C3",
    "Comparative Sign": "=",
    "Obs Value": 62
  },
  {
    "Cpd Smiles": "CS(=O)(=O)c1ccc2c3c([nH]c2c1)CCN(C(=O)[C@@H]1CCCC[C@H]1C(=O)NC1(C#N)CC1)C3",
    "Comparative Sign": "=",
    "Obs Value": 7.2
  },
  {
    "Cpd Smiles": "N#CC1(NC(=O)[C@@H]2CCCC[C@H]2C(=O)N2CCc3[nH]c4ccccc4c3C2)CC1",
    "Comparative Sign": "=",
    "Obs Value": 143
  },
  {
    "Cpd Smiles": "N#CC1(NC(=O)[C@@H]2CCCC[C@H]2C(=O)N2CCc3[nH]c4c(C(F)(F)F)cccc4c3C2)CC1",
    "Comparative Sign": "=",
    "Obs Value": 116
  }
]
